# key: entry, value: GI50
# System: HCC 2998
# experiment summary: NCI tumour cell line growth inhibition, 48 h
Activity calls are given as the source filed them. No stated cut-off is given here; in the data, active = GI50 up to about 1.1 µM and inactive = higher.

Consider the following illustrative entries.
Item under review: COc1cc2oc(-c3ccc4c(c3)OCO4)c(OC)c(=O)c2c(O)c1OC . Reported GI50?
> 50 µM (inactive)

Suppose we examine the compound O=C1/C(=C/C=C/c2ccccc2)CCC1CNc1ccccc1 (stereo unspecified) ; what GI50 value has been reported?
> 68.5 µM (inactive)

Sample O=C1C(Cl)C(c2cc(Br)cc(Br)c2O)N1n1cnc2ccccc2c1=O (stereo unspecified) — what was its GI50?
30.2 µM (inactive)

Others:
Param item = O=C(Nc1ccc(Cl)c(Cl)c1)C(=O)C(C(=O)c1ccccc1F)C1OC(=O)c2ccccc21 (stereo unspecified) ; retrieve measured GI50.
17.9 µM (inactive)

Fill in the blank: the reported GI50 of COC1(OC)CC2C(=O)N(Cc3ccccc3)C1C(S(=O)(=O)c1ccccc1)C2S(=O)(=O)c1ccccc1 (stereo unspecified) is ____.
17.1 µM (inactive)

So what does the record say about GI50 for CCC1CNC(=O)CC1CC(=O)OC (stereo unspecified) ?
> 100 µM (inactive)

Suppose we examine the compound CC1(C)CC[C@]2(C(=O)O)CC[C@]3(C)C(=CC[C@@H]4[C@@]5(C)CC[C@H](OC6OC(C(=O)O)C(O)C(O)C6O)C(C)(C)[C@@H]5CC[C@]43C)[C@@H]2C1 (stereo partly specified) ; what GI50 value has been reported?
18.8 µM (inactive)

Data request, read-out GI50, for C=C1C(=O)O[C@H]2C/C(C)=C/CC[C@]3(C)CCC[C@](C)(CC[C@@H]12)O3
7.24 µM (inactive)

Which GI50 is listed for O=C(O/N=c1/ccc(=O)/c(=N\OC(=O)c2ccccc2)c1=O)c1ccccc1 ?
> 100 µM (inactive)

Please give the measured GI50 for this compound: COC(=O)C1(Cc2ccc3c(c2)CCC3)Cc2ccc3c(c2C1O)CCC3 (stereo unspecified)
17.1 µM (inactive)

I would be grateful if you could share the reported GI50 for Cc1c(Cl)cccc1N1C(=O)C(Cl)=C(Cl)C1=O .
> 100 µM (inactive)

* * *

# Tested on: MOLT-4
# experiment summary: NCI tumour cell line growth inhibition, 48 h
Activity calls are given as the source filed them. Cut-off read from the data, not from the text of the source: active = GI50 up to about 1.1 µM and inactive = higher.
Measured GI50 accompanies every entry in the list below.

Below: 5 compounds and their reported GI50.
Data request, read-out GI50, for COc1ccc(Cc2c3cc(O)c([O-])cc3cc[n+]2C)cc1
10.2 µM (inactive)

For the compound COc1ccc(-c2cs/c(=N\c3ccccc3)n2CCCN(C)C)cc1 , what GI50 is on record?
16.5 µM (inactive)

Which GI50 value belongs to CC(C)(O)[C@@H]1CC[C@@]2(C)CCCC(O)C2(O)C1 (some centres not stated) ?
> 100 µM (inactive)

Dear colleague, I am looking for the recorded GI50 of the following compound: CCCCOC(=O)CNC(=O)OC/C=C/C#CC#C/C=C/COC(=O)NCC(=O)OCCCC
> 10 µM (inactive)

Could you share which GI50 value was measured for C/C(=N\O)c1cccc(Nc2c3ccccc3nc3occc23)c1 ?
4.25 µM (inactive)

---
Find the recorded GI50 belonging to O=C(C(Cl)Cl)N(O)c1ccccc1OCc1ccccc1 and report it.
41.6 µM (inactive)

Need GI50 of O=C(O)CN1CCNCCN(CP(=O)(O)O)CC1 , thanks.
4.34 µM (inactive)

What measured GI50 goes with C=C1C(=O)O[C@@H]2/C=C(\C)CC/C=C(/COC(C)=O)C[C@@H](OC(C)=O)[C@@H]12 ?
3.45 µM (inactive)

Which measured GI50 value corresponds to Cc1[nH]n(-c2ccccc2)c(=O)c1C(N(CCc1ccccc1)C1=NCC(C)S1)(C(F)(F)F)C(F)(F)F (configuration not stated) ?
20.5 µM (inactive)

// query GI50 value for entry O=C(O)CSCCc1ccccc1
> 100 µM (inactive)

Bench note: what GI50 did CCOC(=O)Cn1nnc2ccc(Nc3nc4ccccc4nc3-c3ccccc3)cc21 show?
> 100 µM (inactive)

Which GI50 is listed for C[C@]12CC[C@H](O)C[C@H]1CC[C@@H]1[C@@H]2CC[C@]2(C)[C@@H](C3=CC(=O)OC3)[C@@H](O)C[C@]12O [GITOXIGENIN] ?
0.408 µM (active)

// returns reported GI50 for input C=C(C)C1Cc2c(cc(O)c3c(=O)c4ccccc4n(C)c23)O1 (configuration not stated)
> 100 µM (inactive)

For the compound COc1ccc(NC(=O)C(=O)NNC(=O)c2sc(NNC(C)=O)nc2C)c([N+](=O)[O-])c1 , what GI50 is on record?
36 µM (inactive)

Look up GI50 for this compound: O=C(O/N=c1/ccc(=O)/c(=N\OC(=O)c2ccccc2)c1=O)c1ccccc1
40.2 µM (inactive)

Please look up its GI50: N/N=C(\C(=O)Nc1ccc([N+](=O)[O-])cc1)C(C1=Nc2cc([N+](=O)[O-])ccc2NC1)[N+](=O)[O-] (configuration not stated)
> 100 µM (inactive)

Would you mind telling me what GI50 value was observed for CC1=CC(=O)CC2(C)CC[C@@H]3C[C@]12OC3(C)C (some centres not stated) ?
> 100 µM (inactive)

Item under review: O=C(Cc1ccccc1)N/N=C(/c1nc2ccc([N+](=O)[O-])cc2nc1O)C(O)c1ccccc1Cl (configuration not stated) . Reported GI50?
70 µM (inactive)

Would you mind telling me what GI50 value was observed for Cn1ncc2ccc3[nH]c4ccccc4c(=O)c3c21 ?
28.9 µM (inactive)

Using the record for FC(F)(Sc1nc2ccccc2[nH]1)c1nc2ccccc2o1 , report its GI50.
> 100 µM (inactive)

May I ask what GI50 has been recorded for CCOC(=O)C(=C(SC)SC)c1nn2c(=O)cc(C)nc2s1 ?
17.7 µM (inactive)

Give the measured GI50 of O=C(C(=C(I)I)c1ccccc1)c1ccccc1 .
19.8 µM (inactive)

Given the entry Cc1ccc(S(=O)(=O)N2CCCC2C(=O)O[C@H]2CC[C@H]3CC=C[C@H]32)cc1 (some centres not stated) , report its measured GI50.
7.89 µM (inactive)

Quick one: GI50 for CC1=NN(C(=O)Cc2ccccc2)C(=O)/C1=C\c1ccc([N+](=O)[O-])cc1 ?
> 100 µM (inactive)

Which GI50 reading was recorded for the compound Cc1nn(-c2ccccc2)c2c1N=C(C(=O)O)CC(c1ccccc1)=N2 ?
> 10 µM (inactive)

Which GI50 value is on record for CCNC(=O)COc1ccc(Cl)c(C)c1 ?
> 100 µM (inactive)

I'd like to know its GI50. The compound in question is Cn1/c(=N\c2ccc(Cl)cc2)sc2ccccc21
48.2 µM (inactive)

* * *

Below, each of the molecules is paired with its reported GI50 value.
# System: UO-31
# experiment summary: NCI tumour cell line growth inhibition, 48 h
Active and inactive are the calls of the source. Cut-off read from the data, not from the text of the source: active = GI50 up to about 1.1 µM and inactive = higher.

The examples below pair each entry with its known result.
What value of GI50 on UO-31 does CC(C)(Cl)C(Br)CC/C(=C/CCl)CBr.CC(C)(Cl)C(Br)CC/C(=C\CCl)CBr (stereo unspecified) have?
1.6 µM (inactive)

Please state recorded GI50 (tested on UO-31) of Nc1nc(Cl)cc(NCCCCCCCCNc2cc(Cl)nc(N)n2)n1
22 µM (inactive)

// lookup GI50 | system=UO-31 | key= O=C1C(=Cc2ccccc2[N+](=O)[O-])N=C(c2ccccc2)N1n1c(-c2ccccc2)nc2ccccc2c1=O
32.4 µM (inactive)

---
Any idea what GI50 came out for C=C1C(=O)O[C@H]2C/C(C)=C/CC[C@]3(C)CCC[C@](C)(CC[C@@H]12)O3 on UO-31?
8.69 µM (inactive)

API: value(readout=GI50, system=UO-31) for record Cc1cc(CN2CCCCC2)c(O)c(CN2CCCCC2)c1
> 100 µM (inactive)

Kindly state the measured GI50 obtained for Cc1ccc(-c2[nH]c(=O)n(C3OC(CO)C(O)C(O)C3O)c(=O)c2C#N)cc1 (stereo unspecified) with UO-31.
> 100 µM (inactive)

Tell me reported GI50 for COc1ccc(Cc2c3cc(O)c([O-])cc3cc[n+]2C)cc1 , tested with UO-31.
9.95 µM (inactive)

Request - read-out GI50 | tested on UO-31 | molecule CCCCCCCCOCC(O)COC (stereo unspecified)
> 100 µM (inactive)

* * *

# Tested on: HL-60
# experiment summary: NCI tumour cell line growth inhibition, 48 h
The source made the active and inactive calls. Rule as the data show it: active = GI50 up to about 1.1 µM and inactive = higher.
Respond using exactly one of the listed classes: active, inactive

For CCCCCCCCCCC(=O)CCCCCCC(=O)O , what call appears in the results of this test?
inactive

Look up the recorded call for Cc1nc(Nc2ccc([N+](=O)[O-])cc2)sc1C(/C=C/c1ccc(N(C)C)cc1)=N/NC(=O)c1ccccc1 in this test.
inactive

For N#Cc1nc(C(O)c2ccccc2)oc1N (centres undefined) , which call appears in the assay record?
inactive

// param item: Cc1c(N2C(=O)C(Cl)C2/C=C/c2ccccc2)c(=O)n(-c2ccccc2)n1C (centres undefined) ; yields the recorded call
inactive

Entry N#Cc1cc([N+](=O)[O-])ccc1NC(=O)/C(=N\NC(=O)c1ccncc1)C(c1cnc2ccc([N+](=O)[O-])cc2n1)[N+](=O)[O-] (centres undefined) : call = ?
inactive

New cases:
Can you look up the reported call for O=C1CCCC/C1=C\c1ccc([N+](=O)[O-])cc1 for me?
inactive

Fill in: this test's call for COC(=O)[C@]1(c2cc3ccccc3n2S(=O)(=O)c2ccccc2)CC2CN(C(C)=O)C1CC2=O (some centres undefined) is ___
inactive

Call for entry CCCCNc1nc(N)nc(Nc2ccc(Br)cc2)c1N=O :
inactive

# outcome recorded in this test, key = O=C(NNCc1ccccc1O)c1ccccc1O
active

// return assay outcome for O=Cc1coc2ccccc2c1=O
inactive

How was S=C(NC/C(Br)=C/Br)Nc1cccc2ccccc12 classified in this test?
inactive
